# Study system: hα2C receptor (Homo sapiens, UniProt P18825)
# Construct: expressed in transfected cells; host or cells: CHO cells
# Sequence (P18825 whole entry): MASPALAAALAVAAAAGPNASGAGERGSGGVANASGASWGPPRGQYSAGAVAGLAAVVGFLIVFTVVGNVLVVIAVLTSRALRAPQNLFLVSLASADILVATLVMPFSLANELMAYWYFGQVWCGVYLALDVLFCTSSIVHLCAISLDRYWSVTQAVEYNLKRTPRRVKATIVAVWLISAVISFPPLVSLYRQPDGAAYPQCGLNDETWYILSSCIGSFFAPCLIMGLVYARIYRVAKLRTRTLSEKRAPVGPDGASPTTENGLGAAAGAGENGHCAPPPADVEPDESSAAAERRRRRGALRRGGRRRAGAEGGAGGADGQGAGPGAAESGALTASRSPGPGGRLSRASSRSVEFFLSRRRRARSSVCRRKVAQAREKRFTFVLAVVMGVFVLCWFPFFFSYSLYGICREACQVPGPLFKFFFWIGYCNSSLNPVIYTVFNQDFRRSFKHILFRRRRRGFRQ
# Procedure text: Radioligand binding experiment for α2C-adrenergic receptor ([3H]-raulwolscine)
# Stated conditions: CHO cell membranes with human α2C receptor, [3H]raulwolscine 1 nM; read-out: pIC50 α2C (converted)
Recorded metric: IC50 (nM)
// units = nM; emit number, no label

For orientation, consider the following solved cases.
Measured on hα2C receptor (Homo sapiens, UniProt P18825), COc1ccc(Nc2ccc3c(c2)OCC2C3=NOC2CN2CCN(CC(C)=Cc3ccc(F)cc3)CC2)cc1 (centres unmarked) [Compound 43] has a documented IC50 of 126

hα2C receptor (Homo sapiens, UniProt P18825) data for CCCCCNc1ccc2c(c1)OCC1C2=NOC1CN1CCN(CC(C)=Cc2ccc(F)cc2)CC1 (centres unmarked) [Compound 133] ; its IC50: 126

Item C/C(=C\c1ccccc1)CN1CCN(CC2ON=C3c4cc5c(cc4OCC32)N(C)CCO5)CC1 (centres unmarked) [Compound 14] was tested on hα2C receptor (Homo sapiens, UniProt P18825); the reported IC50 is 5.01

hα2C receptor (Homo sapiens, UniProt P18825) IC50 of COc1cc2c(cc1N1CCC(C)CC1)OCC1C2=NOC1CN1CCN(CC(C)=Cc2ccc(F)cc2)CC1 (centres unmarked) [Compound 103] is 63.1

# value of IC50, hα2C receptor (Homo sapiens, UniProt P18825), item COc1cc2c(cc1N(C)CCO)OCC1C2=NOC1CN1CCN(CC(C)=Cc2ccccc2)CC1 (centres unmarked) [Compound 32] = 0.794

Continuing:
Entry CC(=Cc1cccc(F)c1)CN1CCN(CC2ON=C3c4ccc(N(C)CCO)cc4OCC32)CC1 (centres unmarked) [Compound 35] under hα2C receptor (Homo sapiens, UniProt P18825) had IC50 of 1.26

Form field IC50 for item CNCCN(C)c1ccc2c(c1)OCC1C2=NOC1CN1CCN(CC(C)=Cc2ccc(F)cc2)CC1 (centres unmarked) [Compound 21] on hα2C receptor (Homo sapiens, UniProt P18825): 2

Value sought: IC50, system hα2C receptor (Homo sapiens, UniProt P18825), item CCC(C)CNc1cc2c(cc1OC)C1=NOC(CN3CCN(CC(C)=Cc4ccc(F)cc4)CC3)C1CO2 (centres unmarked) [Compound 104] . Result: 126
